// data source = ChEMBL document CHEMBL1132225

assay: The Kel values in female wistar rats.; type: ADME, organism-based; conditions: rat, in vivo
The reader will find reported k el values listed item by item below.
recordedMetric: k el (s⁻¹)

[
  {
    "molecule": "Cc1c(C)c2c(c(C)c1O)CCC(C)(COc1ccc(CC3SC(=O)NC3=O)cc1)O2 (configuration not stated)",
    "recordedMetric": "k el",
    "numericResult": "5.56e-05"
  },
  {
    "molecule": "Cc1c(C)c2c(c(C)c1OCc1ccccc1)C(CN1CCC[C@H]1COc1ccc(/C=C3\\SC(=O)NC3=O)cc1)C(C)(C)O2 (some centres not stated)",
    "recordedMetric": "k el",
    "numericResult": "1.39e-05"
  }
]

---

experiment: Pharmacokinetic Parameter, Tmax is the time at which maximum concentration (Cmax) is reached in Female Wistar Rats at 100 mg/kg by po administration; type: ADME, organism-based; set-up: dose 100 mg/kg, route oral; settings: rat, in vivo
The reader will find reported Tmax values listed item by item below.
recordedMetric: Tmax (h)

[
  {
    "molecule": "Cc1c(C)c2c(c(C)c1O)CCC(C)(COc1ccc(CC3SC(=O)NC3=O)cc1)O2 (stereo not drawn)",
    "recordedMetric": "Tmax",
    "numericResult": 2.25
  },
  {
    "molecule": "Cc1c(C)c2c(c(C)c1OCc1ccccc1)C(CN1CCC[C@H]1COc1ccc(/C=C3\\SC(=O)NC3=O)cc1)C(C)(C)O2.O=C(O)/C=C\\C(=O)O (stereo partly drawn)",
    "recordedMetric": "Tmax",
    "numericResult": 5
  },
  {
    "molecule": "Cc1c(C)c2c(c(C)c1OCc1ccccc1)C(CN1CCC[C@H]1COc1ccc(/C=C3\\SC(=O)NC3=O)cc1)C(C)(C)O2 (stereo partly drawn)",
    "recordedMetric": "Tmax",
    "numericResult": 3.5
  }
]

---

organism: Rattus norvegicus; assay: The AUC(0-t)values in female wistar rats.; assay type: ADME, organism-based; conditions: in vivo
The reader will find reported AUC values listed item by item below.

[
  {
    "molecule": "Cc1c(C)c2c(c(C)c1OCc1ccccc1)C(CN1CCC[C@H]1COc1ccc(/C=C3\\SC(=O)NC3=O)cc1)C(C)(C)O2 (some centres not stated)",
    "AUC [ng·h/mL]": 15500
  },
  {
    "molecule": "Cc1c(C)c2c(c(C)c1O)CCC(C)(COc1ccc(CC3SC(=O)NC3=O)cc1)O2 (configuration not stated)",
    "AUC [ng·h/mL]": 25900
  }
]

---

molecular target: Peroxisome proliferator-activated receptor alpha (Homo sapiens) (UniProt Q07869); assay: The fold activation against 50 u M Peroxisome proliferator activated receptor alpha(amino acids 167-468)
Sequence (Q07869 whole entry, the tested form may be a part): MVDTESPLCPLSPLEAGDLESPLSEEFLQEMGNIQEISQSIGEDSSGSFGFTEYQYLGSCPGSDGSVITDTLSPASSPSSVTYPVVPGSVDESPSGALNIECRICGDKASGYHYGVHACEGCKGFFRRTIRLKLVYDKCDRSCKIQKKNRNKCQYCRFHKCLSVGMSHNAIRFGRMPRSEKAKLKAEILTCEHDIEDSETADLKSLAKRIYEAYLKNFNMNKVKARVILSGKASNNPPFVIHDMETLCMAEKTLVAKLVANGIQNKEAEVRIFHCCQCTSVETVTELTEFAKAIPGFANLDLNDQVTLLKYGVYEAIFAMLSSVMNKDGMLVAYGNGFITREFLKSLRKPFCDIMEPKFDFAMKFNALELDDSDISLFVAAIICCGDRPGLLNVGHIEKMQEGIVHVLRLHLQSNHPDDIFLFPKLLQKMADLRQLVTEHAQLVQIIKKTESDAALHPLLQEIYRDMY
The reader will find reported Fold activation values listed item by item below.

[
  {
    "molecule": "Cc1c(C)c2c(c(C)c1OCc1ccccc1)C(CN1CCC[C@H]1COc1ccc(CC3SC(=O)NC3=O)cc1)C(C)(C)O2 (some centres undefined)",
    "Fold activation": 0.33
  },
  {
    "molecule": "Cc1c(C)c2c(c(C)c1O)C(CN1CCC[C@H]1COc1ccc(/C=C3\\SC(=O)NC3=O)cc1)C(C)(C)O2 (some centres undefined)",
    "Fold activation": 0.28
  },
  {
    "molecule": "Cc1c(C)c2c(c(C)c1OCc1ccccc1)C(CN1CCC[C@H]1COc1ccc(/C=C3\\SC(=O)NC3=O)cc1)C(C)(C)O2 (some centres undefined)",
    "Fold activation": 0.43
  },
  {
    "molecule": "Cc1c(C)c2c(c(C)c1O)C(CN1CCC[C@H]1COc1ccc(CC3SC(=O)NC3=O)cc1)C(C)(C)O2 (some centres undefined)",
    "Fold activation": 0.46
  }
]
